meta.source: PubChem BioAssay (NCI)

Test system: BT-549 breast
experiment-notes: NCI tumour cell line growth inhibition, 48 h
result-type: TGI (µM)
Please give a number only; it is taken to be in µM.

CC(=O)Oc1c(C(=O)[O-])cc(C(C)C)cc1C(C)C.CC(=O)Oc1c(C(=O)[O-])cc(C(C)C)cc1C(C)C.CC(=O)Oc1c(C(=O)[O-])cc(C(C)C)cc1C(C)C.CC(=O)Oc1c(C(=O)[O-])cc(C(C)C)cc1C(C)C.[Cu+2].[Cu+2] : 38.5
O=[N+]([O-])c1ccc(/C=N/Nc2nc3ccccc3[nH]2)o1 : 31.1
COc1cc(/C=C/c2cc(/C=C/c3ccc(O)c(OC)c3)n(C(=O)c3ccccc3Br)n2)ccc1O : 7.75
CCCCS(=O)c1sc2nc(-c3cccs3)cc(-c3ccccc3)c2c1N (stereo unspecified) : 67.9
CCN(CC)c1ccc2nc3ccc(=[N+](CC)CC)cc-3oc2c1 : 21

Challenge: Give recorded TGI with BT-549 breast for the following molecule: CSC(=O)/C=C1\SS/C(=C\C(=O)SC)S1
Response given: 3.26

Challenge: Give recorded TGI with BT-549 breast for the following molecule: COC12C(COC(=O)NCCO)C3=C(C(=O)C(C)=C(N)C3=O)N1CC1NC12 (stereo unspecified)
Response given: 171

Challenge: Give recorded TGI with BT-549 breast for the following molecule: COc1ccc(CCCCNCc2cccc(CNCCCCc3ccc(OC)cc3)c2)cc1
Response given: 3.36

Challenge: Give recorded TGI with BT-549 breast for the following molecule: COc1ccccc1CNCCN1C(=O)c2ccc3c4c(ccc(c24)C1=O)C(=O)N(CCNCc1ccccc1OC)C3=O
Response given: 1.64

Challenge: Give recorded TGI with BT-549 breast for the following molecule: O=C(Nc1ccc(OC(F)(F)Cl)cc1)c1cnc(N2CC[C@@H](O)C2)c(-c2ccn[nH]2)c1
Response given: 24.7

Challenge: Give recorded TGI with BT-549 breast for the following molecule: N#Cc1c(NC(=O)C(F)(F)F)sc2c3c(=O)c4ccccc4c(=O)c=3oc3ccccc3c12
Response given: 53.3
